Biological target: UniProt Q9NR96
Assay: TLR9 inhibition reporter assay (HEK-Blue cells, SEAP reporter, ODN2006 stimulation)
Conditions: HEK-Blue cells overexpressing human TLR9, SEAP reporter, ODN2006 5 nM
# criterion met = IC50 below 2000 nM (exclusive); criterion not met = IC50 at/above 2000 nM

# count of solved cases: 6
> print(dat)
                                   compound       answer.label
1  CNC(=O)CN1CCOC(c2ccc3[nH]c(-c4cc(OC)c5ncnn5c4)c(C(C)C)c3c2)C1 (stereo not shown) [Example 315]  criterion not met
2      CCc1c(-c2ccnc(C)c2)[nH]c2ccc(CN)cc12  criterion not met
3  Cc1cc(-c2[nH]c3ccc(C4CCC(N(C)C5CC5)CC4)cc3c2C(C)C)cn2ncnc12 (single isomer, unassigned) [Example 8]  criterion not met
4  Cc1c(-c2[nH]c3ccc(C4CC(NCCS(C)(=O)=O)C4)cc3c2C(C)C)cn(C)c(=O)c1C (stereo not shown) [Example 494]  criterion not met
5  CN[C@H](C)C(=O)N1CCCC(c2ccc3[nH]c(-c4cc(C)nc(C)c4)c(C(C)C)c3c2)C1 (stereo partly shown) [Example 217]      criterion met
6  Cc1cc(-c2[nH]c3ccc(C4CCCN(Cc5c[nH]c(C)n5)C4)cc3c2C(C)C)cc(C)n1 (stereo not shown) [Example 246]      criterion met

Incoming: Criterion: IC50 strictly below 2000 nM. Is it met by COc1cc(-c2[nH]c3ccc(C4CCC(NC5CC5)CC4)cc3c2C(C)C)cn2ncnc12 (stereo not shown) [Example 11] ?
Outgoing: criterion not met

---

Biological target: human TLR9 (Homo sapiens, UniProt Q9NR96)
Sequence (Q9NR96 26-1032): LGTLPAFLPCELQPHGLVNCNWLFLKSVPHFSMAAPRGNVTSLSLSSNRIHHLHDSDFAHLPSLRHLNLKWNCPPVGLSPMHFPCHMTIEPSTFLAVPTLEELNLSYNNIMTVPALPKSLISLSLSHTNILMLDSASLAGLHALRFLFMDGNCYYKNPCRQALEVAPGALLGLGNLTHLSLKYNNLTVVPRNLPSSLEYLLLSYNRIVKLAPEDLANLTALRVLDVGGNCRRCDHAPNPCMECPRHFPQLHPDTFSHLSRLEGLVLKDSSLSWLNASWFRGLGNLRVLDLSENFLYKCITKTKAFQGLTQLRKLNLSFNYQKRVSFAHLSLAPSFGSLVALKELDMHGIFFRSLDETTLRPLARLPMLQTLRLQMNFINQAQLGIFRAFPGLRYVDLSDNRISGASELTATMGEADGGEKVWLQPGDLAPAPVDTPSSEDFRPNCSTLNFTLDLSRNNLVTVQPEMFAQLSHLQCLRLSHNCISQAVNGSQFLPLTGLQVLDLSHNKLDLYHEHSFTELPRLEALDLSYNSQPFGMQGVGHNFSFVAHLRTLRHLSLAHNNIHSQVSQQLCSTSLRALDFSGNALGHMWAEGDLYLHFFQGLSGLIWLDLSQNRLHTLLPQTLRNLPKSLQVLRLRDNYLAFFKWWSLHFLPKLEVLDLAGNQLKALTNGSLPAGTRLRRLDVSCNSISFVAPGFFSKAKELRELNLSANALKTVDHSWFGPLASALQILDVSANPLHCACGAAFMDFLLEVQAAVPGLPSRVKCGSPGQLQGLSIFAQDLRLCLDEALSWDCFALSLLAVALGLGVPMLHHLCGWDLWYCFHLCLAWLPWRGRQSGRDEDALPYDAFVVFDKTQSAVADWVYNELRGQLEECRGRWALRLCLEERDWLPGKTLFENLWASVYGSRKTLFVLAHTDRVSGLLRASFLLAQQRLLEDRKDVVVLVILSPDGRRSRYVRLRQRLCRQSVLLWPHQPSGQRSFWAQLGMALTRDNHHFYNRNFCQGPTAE
Experiment: TLR9 inhibition reporter assay (HEK-Blue cells, SEAP reporter, ODN2006 stimulation)
Settings: HEK-Blue cells overexpressing human TLR9, SEAP reporter, ODN2006 5 nM
measurement_name: pIC50
pIC50 is defined as minus the log10 of a concentration measured in mol/L.

Incoming: Using known records, supply pIC50 for Cc1cc(-c2[nH]c3ccc(C4CCC(NC(=O)CN(C)C)CC4)cc3c2C(C)C)cc(C)n1 (stereo not shown) [Example 119]
Outgoing: 6.01

Incoming: Using known records, supply pIC50 for COc1cc(-c2[nH]c3ccc(C4CCC(NCC(=O)NC5COC5)CC4)cc3c2C(C)C)cn2ncnc12 (stereo not shown) [Example 165]
Outgoing: 5.70

Incoming: Using known records, supply pIC50 for Cc1cc(-c2[nH]c3ccc(C4CNCCO4)cc3c2C(C)C)cn2ncnc12 (stereo not shown) [Example 283]
Outgoing: 5.57

Incoming: Using known records, supply pIC50 for Cc1cc(-c2[nH]c3ccc(C4CN(CC(=O)N(C)C)CCO4)cc3c2C(C)C)cc(C)n1 (stereo not shown) [Example 326]
Outgoing: 4.71

---

Target: human TLR8 (Homo sapiens, UniProt Q9NR97)
Sequence (Q9NR97 27-1041): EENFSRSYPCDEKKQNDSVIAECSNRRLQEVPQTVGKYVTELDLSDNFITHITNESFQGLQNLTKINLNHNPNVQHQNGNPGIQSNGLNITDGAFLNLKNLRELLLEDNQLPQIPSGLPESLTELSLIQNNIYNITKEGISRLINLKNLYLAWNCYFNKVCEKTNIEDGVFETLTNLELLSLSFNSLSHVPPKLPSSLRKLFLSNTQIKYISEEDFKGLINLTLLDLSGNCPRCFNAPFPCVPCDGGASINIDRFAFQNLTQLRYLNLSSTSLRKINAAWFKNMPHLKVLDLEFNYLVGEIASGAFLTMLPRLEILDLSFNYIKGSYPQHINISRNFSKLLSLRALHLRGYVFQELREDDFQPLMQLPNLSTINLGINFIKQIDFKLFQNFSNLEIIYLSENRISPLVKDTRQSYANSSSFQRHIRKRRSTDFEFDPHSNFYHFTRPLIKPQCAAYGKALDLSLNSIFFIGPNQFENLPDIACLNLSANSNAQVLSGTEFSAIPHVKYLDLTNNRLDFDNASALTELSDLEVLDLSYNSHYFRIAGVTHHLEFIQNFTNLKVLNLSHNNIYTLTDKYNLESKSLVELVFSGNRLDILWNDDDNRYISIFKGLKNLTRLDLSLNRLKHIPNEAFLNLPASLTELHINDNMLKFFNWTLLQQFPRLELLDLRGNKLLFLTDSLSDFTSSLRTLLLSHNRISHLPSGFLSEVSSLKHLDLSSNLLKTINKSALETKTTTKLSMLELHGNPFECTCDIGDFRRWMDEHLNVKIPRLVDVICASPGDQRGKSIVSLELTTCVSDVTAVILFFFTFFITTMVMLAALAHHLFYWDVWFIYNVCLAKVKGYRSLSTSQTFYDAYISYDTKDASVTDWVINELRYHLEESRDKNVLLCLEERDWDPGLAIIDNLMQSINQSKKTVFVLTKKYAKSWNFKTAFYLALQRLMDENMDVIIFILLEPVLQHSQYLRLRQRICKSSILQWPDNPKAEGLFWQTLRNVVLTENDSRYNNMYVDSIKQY
Assay: TLR8 inhibition reporter assay (HEK-Blue cells, SEAP reporter, R848 stimulation)
Settings: HEK-Blue cells overexpressing human TLR8, SEAP reporter, R848 15.9 μM
measurement_name: pIC50
pIC50 is defined as minus the log10 of a concentration measured in mol/L.

These solved cases illustrate the format of a correct answer.
> print(dat)
                                   compound                               measured.on  endpoint.result
1  Cc1c(-c2[nH]c3ccc(C4CN(CC(=O)N(C)C)C4)cc3c2C(C)C)cn2ncnc2c1C  human TLR8 (Homo sapiens, UniProt Q9NR97)             8.31
2  Cc1c(-c2[nH]c3ccc(C4CN(C5COC5)C4)cc3c2C(C)C)cn2cnnc2c1C  human TLR8 (Homo sapiens, UniProt Q9NR97)             7.44

Incoming: Using known records, supply pIC50 for "CCc1c(-c2ccc(OC)c(OC)c2)[nH]c2ccc(CN3CCNCC3)cc12"
Outgoing: 7.14

Incoming: Using known records, supply pIC50 for CNCCN1CCCC(c2ccc3[nH]c(-c4ccnc(C)c4)c(C(C)C)c3c2)C1 (centres unmarked) [Example 256]
Outgoing: 8.49

Incoming: Using known records, supply pIC50 for COc1cc(-c2[nH]c3ccc(C4CN(C(=O)CN(C)C)CCO4)cc3c2C(C)C)cn2ncnc12 (centres unmarked) [Example 334]
Outgoing: 8.51

Incoming: Using known records, supply pIC50 for Cc1cc(-c2[nH]c3ccc(C4CN(CC(N)=O)CCO4)cc3c2C(C)C)cc(C)n1 (centres unmarked) [Example 324]
Outgoing: 6.94

Incoming: Using known records, supply pIC50 for Cc1cc(-c2[nH]c3ccc(CC4CCCN4)cc3c2C(C)C)cn2ncnc12 (centres unmarked)
Outgoing: 8.46

Incoming: Using known records, supply pIC50 for COc1cc(-c2[nH]c3ccc(C4CCCN(C5COC5)C4)cc3c2C(C)C)cn2ncnc12 (centres unmarked) [Example 237]
Outgoing: 7.42
